target-or-system: BTK (Homo sapiens)
Sequence (Q06187 whole entry): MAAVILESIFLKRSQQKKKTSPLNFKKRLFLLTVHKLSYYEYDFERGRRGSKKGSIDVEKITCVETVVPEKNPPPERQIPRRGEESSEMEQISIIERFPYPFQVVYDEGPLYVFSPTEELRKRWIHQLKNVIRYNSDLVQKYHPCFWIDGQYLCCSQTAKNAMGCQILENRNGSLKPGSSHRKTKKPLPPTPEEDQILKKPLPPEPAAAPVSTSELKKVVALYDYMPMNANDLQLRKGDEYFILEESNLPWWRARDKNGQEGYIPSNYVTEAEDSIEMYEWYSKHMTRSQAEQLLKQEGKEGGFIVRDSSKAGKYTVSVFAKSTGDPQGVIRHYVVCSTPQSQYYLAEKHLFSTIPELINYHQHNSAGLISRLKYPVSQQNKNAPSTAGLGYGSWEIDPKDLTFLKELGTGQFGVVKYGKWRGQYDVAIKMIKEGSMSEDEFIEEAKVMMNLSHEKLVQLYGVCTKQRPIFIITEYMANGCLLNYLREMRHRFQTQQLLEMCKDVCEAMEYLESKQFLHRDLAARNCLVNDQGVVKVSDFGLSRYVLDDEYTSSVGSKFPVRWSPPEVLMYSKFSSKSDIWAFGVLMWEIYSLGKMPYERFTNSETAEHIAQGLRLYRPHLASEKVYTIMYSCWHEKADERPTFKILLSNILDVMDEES
assay-method-text: Degradation of BTK protein in Namalwa cells (Western blot; DC50, Dmax)
Property: Dmax; scope: individual molecules

molecule	Dmax
NC(=O)c1c(-c2ccc(Oc3ccccc3)cc2)nn2c1NCC[C@H]2C1CCN(C(=O)N2CCC(CN3CCC(c4ccc5c(c4)C(=O)N(C4CCC(=O)NC4=O)C5=O)CC3)CC2)CC1 (stereo partly shown)	> 90%

// map NC(=O)c1c(-c2ccc(Oc3ccccc3)cc2)nn2c1NCC[C@H]2C1CCN(C2CCN(CCN3CCC(c4ccc5c(c4)CN(C4CCC(=O)NC4=O)C5=O)CC3)CC2)CC1 (stereo partly shown) to recorded Dmax (system: BTK (Homo sapiens))
> 75%

Then what about the molecule NC(=O)c1c(-c2ccc(Oc3ccccc3)cc2)nn2c1NCCC2C1CCN(CC2CCN(C(=O)N3CCC(CN4CCN(c5ccc6c(c5)CN(C5CCC(=O)NC5=O)C6=O)CC4)CC3)CC2)CC1 (stereo not shown) ?
> 90%

Then what about the molecule NC(=O)c1c(-c2ccc(Oc3ccccc3)cc2)nn2c1NCC[C@H]2C1CCN(C2CCN(C(=O)N3CCC(C4CCN(c5ccc6c(c5)CN(C5CCC(=O)NC5=O)C6=O)CC4)CC3)CC2)CC1 (stereo partly shown) ?
> 90%

Then what about the molecule NC(=O)c1c(-c2ccc(Oc3ccccc3)cc2)nn2c1NCC[C@H]2C1CCN(CC2CCN(CC3CCN(c4ccc5c(c4)C(=O)N(C4CCC(=O)NC4=O)C5=O)CC3)CC2)CC1 (stereo partly shown) ?
> 75%

Then what about the molecule Nc1ncnc2c1c(-c1ccc(Oc3ccccc3)cc1)nn2C1CCN(CC2CCN(CCCN3CCN(c4ccc5c(c4)CN(C4CCC(=O)NC4=O)C5=O)CC3)CC2)CC1 (stereo not shown) ?
> 75%

Then what about the molecule NC(=O)c1c(-c2ccc(Oc3ccccc3)cc2)nn2c1NCCC2C1CCN(C(=O)N2CCC(CC3CCN(c4ccc5c(c4)C(=O)N(C4CCC(=O)NC4=O)C5=O)CC3)CC2)CC1 (stereo not shown) ?
> 90%

Taken from patent US12139492B2.
